System: Staph. aureus 152 (pen. sens)
Assay protocol: MIC against veterinary bacteria in vitro
Experimental conditions: Staphylococcus aureus, 18 h
Observed property: MIC (µg/mL)
Express your answer in µg/mL, writing the number without its unit.

Lookup: Requested field: MIC. Item: C/C(=C\c1ncc(-c2ccc(C#N)cc2)o1)C[C@@H]1OC[C@H](C[C@@H]2O[C@H]2[C@@H](C)[C@H](C)O)[C@@H](O)[C@H]1O
Found: 0.625

Lookup: Requested field: MIC. Item: C/C(=C\c1ncc(CCCCCCCC(=O)O)o1)C[C@@H]1OC[C@H](C[C@@H]2O[C@H]2[C@@H](C)[C@H](C)O)[C@@H](O)[C@H]1O
Found: 0.625

Lookup: Requested field: MIC. Item: C/C(=C\c1ncc(-c2ccccc2)o1)C[C@@H]1OC[C@H](C[C@@H]2O[C@H]2[C@@H](C)[C@H](C)O)[C@@H](O)[C@H]1O
Found: 1.25
